Where do the numbers come from? From patent US7074789B2.

Reported pIC50 values for the following compounds.
- Tgt: PDGFRB (Homo sapiens, UniProt P09619)
- Construct: Kinases are expressed as either kinase domains or full length constructs; made in house
- Sequence (P09619 33-1106, species assumed): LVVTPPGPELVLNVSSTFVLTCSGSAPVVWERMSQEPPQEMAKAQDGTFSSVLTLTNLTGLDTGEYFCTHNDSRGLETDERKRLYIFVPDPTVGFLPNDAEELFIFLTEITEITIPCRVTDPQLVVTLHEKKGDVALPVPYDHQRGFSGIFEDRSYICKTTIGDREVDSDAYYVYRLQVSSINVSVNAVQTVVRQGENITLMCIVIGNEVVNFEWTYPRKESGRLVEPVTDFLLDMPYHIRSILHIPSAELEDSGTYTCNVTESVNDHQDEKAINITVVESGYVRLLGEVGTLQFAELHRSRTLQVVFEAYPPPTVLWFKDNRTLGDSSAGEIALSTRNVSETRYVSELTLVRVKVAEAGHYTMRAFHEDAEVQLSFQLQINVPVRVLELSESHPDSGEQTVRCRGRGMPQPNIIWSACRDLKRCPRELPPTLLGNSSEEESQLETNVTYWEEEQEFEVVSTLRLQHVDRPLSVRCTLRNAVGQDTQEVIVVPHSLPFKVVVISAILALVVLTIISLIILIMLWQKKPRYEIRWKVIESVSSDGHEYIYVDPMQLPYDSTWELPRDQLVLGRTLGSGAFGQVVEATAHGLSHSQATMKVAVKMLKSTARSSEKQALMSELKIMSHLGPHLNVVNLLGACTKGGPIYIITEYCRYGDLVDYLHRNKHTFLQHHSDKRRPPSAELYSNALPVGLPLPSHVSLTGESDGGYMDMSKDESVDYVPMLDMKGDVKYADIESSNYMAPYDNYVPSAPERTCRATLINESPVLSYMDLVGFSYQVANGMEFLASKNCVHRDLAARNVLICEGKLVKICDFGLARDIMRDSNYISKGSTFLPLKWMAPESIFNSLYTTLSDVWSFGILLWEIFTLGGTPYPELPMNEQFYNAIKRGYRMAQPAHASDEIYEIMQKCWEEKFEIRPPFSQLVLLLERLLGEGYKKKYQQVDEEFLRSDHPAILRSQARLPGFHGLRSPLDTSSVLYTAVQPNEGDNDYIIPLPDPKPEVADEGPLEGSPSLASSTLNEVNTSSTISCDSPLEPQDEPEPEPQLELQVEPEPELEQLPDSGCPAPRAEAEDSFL
- Assay Procedure: Kinase inhibition assay (33P transfer), PDGFRB
- Assay type: biochemical
- Experimental Setup: read-out: PDGFRB-1
pIC50: −log10 of the molar value.

// below: answered compounds
COC(=O)c1ccc(-c2cc(Nc3ncnc(Nc4cccc(CCC(=O)O)c4)n3)[nH]n2)cc1 ... 5.28 to 6.06
COc1cc(Nc2ncnc(-c3cccnc3NC(C)C)n2)ccc1NC(=O)CCCN1CCNCC1 ... > 6.10
COc1ccc(Nc2ncnc(Nc3ccc(N4CCCCC4)cc3)n2)cc1OC ... > 6.01
Nc1ncnc(Nc2ccc3c(cnn3Cc3ccccc3)c2)n1 ... < 4.85
c1ccc(Cn2ncc3cc(Nc4ncnc(NCc5ccco5)n4)ccc32)cc1 ... < 4.95
CN(c1cccc(Cl)c1)c1ncnc(Nc2ccc(S(C)(=O)=O)cc2)n1 ... 5.21 to 5.99
COc1cc(Nc2ncnc(-n3c(NC(C)(C)c4ccccc4)nc4ccccc43)n2)cc(OC)c1OC ... > 6.11
COc1ccc(Nc2ncnc(Nc3cccc(C#N)c3)n2)cc1OC ... > 5.94
O=C(O)Cc1cccc(Nc2ncnc(Nc3cccc(Br)c3)n2)c1 ... 5.22 to 6.00
Cc1ccc2c(c1)CCCN2c1ncnc(Nc2ccc(F)c(F)c2)n1 ... 5.17 to 5.95

Req: Quote pIC50 with test system PDGFRB (Homo sapiens, UniProt P09619) for `CN(C)CCNc1ncnc(Nc2ccc3c(cnn3Cc3ccccc3)c2)n1`
Resp: < 4.94

Req: Quote pIC50 with test system PDGFRB (Homo sapiens, UniProt P09619) for `O=C(O)Cc1cccc(Nc2ncnc(-c3cccnc3NCc3ccccc3)n2)c1`
Resp: > 6.01

Req: Quote pIC50 with test system PDGFRB (Homo sapiens, UniProt P09619) for `COc1cc(Nc2ncnc(-c3cccnc3Nc3cccc4c3CCCC4)n2)cc(OC)c1OC`
Resp: < 5.03

Req: Quote pIC50 with test system PDGFRB (Homo sapiens, UniProt P09619) for `C#Cc1cccc(Nc2ncnc(Nc3cc(-c4ccccc4)n[nH]3)n2)c1`
Resp: < 4.90

----------
Reported IC50 values for the following compounds.
- Tgt: IGFR-1 (Homo sapiens, UniProt P08069)
- Construct: Kinases are expressed as either kinase domains or full length constructs; made in house
- Sequence (P08069 31-1367): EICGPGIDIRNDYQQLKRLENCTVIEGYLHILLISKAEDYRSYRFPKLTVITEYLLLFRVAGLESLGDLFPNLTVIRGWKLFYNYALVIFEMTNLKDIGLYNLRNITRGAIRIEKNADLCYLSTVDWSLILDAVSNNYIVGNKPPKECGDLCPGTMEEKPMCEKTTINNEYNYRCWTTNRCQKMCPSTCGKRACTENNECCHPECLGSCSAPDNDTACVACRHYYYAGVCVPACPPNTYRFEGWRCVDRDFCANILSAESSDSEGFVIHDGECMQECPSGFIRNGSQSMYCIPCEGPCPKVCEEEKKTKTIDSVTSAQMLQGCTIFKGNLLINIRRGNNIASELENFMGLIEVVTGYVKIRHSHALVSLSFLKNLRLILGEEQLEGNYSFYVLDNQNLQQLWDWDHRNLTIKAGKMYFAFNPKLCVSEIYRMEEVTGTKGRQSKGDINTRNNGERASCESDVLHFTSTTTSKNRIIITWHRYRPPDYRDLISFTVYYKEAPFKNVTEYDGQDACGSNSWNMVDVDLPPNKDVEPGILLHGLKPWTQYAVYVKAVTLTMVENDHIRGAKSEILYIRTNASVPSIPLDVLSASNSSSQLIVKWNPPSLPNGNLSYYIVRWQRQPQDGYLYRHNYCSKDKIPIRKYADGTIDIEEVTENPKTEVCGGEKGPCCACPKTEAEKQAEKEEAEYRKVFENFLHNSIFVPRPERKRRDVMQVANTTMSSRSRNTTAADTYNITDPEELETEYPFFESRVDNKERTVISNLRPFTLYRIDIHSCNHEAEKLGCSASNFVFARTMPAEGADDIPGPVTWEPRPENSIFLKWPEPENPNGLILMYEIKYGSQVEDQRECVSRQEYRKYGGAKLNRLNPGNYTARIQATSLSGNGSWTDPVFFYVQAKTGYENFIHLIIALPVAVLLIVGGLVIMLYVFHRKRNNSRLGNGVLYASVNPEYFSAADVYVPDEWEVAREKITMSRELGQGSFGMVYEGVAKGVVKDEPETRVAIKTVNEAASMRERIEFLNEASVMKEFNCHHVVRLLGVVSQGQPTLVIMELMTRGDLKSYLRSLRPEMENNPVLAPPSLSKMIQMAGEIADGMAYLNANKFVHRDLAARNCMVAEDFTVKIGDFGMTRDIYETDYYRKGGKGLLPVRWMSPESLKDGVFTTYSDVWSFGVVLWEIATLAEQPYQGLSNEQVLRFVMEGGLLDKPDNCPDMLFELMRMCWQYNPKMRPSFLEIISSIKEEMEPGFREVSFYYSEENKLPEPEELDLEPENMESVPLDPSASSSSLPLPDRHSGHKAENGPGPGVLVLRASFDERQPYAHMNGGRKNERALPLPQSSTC
- Assay Procedure: Kinase inhibition assay (33P transfer), IGFR-1
- Type: biochemical
- Experimental Setup: Table 2, kinase inhibition class

// below: answered compounds
COc1cc(Nc2ncnc(-n3c(Nc4cccc(C)c4)nc4ccccc43)n2)cc(OC)c1OC ... > 9.31 µM
COc1ccc(Nc2ncnc(Nc3ccc(OCc4ccccc4)cc3)n2)cc1 ... > 11.3 µM
COc1cc(Nc2ncnc(Nc3ccc(Cl)cc3F)n2)cc(OC)c1OC ... < 0.986 µM
COc1cc(Nc2ncnc(Nc3cc(C(C)(C)C)[nH]n3)n2)cc(OC)c1OC ... < 1 µM

Next, consider the following compound.
Req: Answer with the recorded IC50 of `COc1cc(Nc2ncnc(N(c3ccccc3)c3nc4ccccc4[nH]3)n2)cc(OC)c1OC` only.
Resp: > 9.58 µM

----------
Reported pIC50 values for the following molecules.
- Tgt: EGFR (Homo sapiens, UniProt P00533)
- Construct: Kinases are expressed as either kinase domains or full length constructs; made in house
- Sequence (P00533 25-1210, species assumed): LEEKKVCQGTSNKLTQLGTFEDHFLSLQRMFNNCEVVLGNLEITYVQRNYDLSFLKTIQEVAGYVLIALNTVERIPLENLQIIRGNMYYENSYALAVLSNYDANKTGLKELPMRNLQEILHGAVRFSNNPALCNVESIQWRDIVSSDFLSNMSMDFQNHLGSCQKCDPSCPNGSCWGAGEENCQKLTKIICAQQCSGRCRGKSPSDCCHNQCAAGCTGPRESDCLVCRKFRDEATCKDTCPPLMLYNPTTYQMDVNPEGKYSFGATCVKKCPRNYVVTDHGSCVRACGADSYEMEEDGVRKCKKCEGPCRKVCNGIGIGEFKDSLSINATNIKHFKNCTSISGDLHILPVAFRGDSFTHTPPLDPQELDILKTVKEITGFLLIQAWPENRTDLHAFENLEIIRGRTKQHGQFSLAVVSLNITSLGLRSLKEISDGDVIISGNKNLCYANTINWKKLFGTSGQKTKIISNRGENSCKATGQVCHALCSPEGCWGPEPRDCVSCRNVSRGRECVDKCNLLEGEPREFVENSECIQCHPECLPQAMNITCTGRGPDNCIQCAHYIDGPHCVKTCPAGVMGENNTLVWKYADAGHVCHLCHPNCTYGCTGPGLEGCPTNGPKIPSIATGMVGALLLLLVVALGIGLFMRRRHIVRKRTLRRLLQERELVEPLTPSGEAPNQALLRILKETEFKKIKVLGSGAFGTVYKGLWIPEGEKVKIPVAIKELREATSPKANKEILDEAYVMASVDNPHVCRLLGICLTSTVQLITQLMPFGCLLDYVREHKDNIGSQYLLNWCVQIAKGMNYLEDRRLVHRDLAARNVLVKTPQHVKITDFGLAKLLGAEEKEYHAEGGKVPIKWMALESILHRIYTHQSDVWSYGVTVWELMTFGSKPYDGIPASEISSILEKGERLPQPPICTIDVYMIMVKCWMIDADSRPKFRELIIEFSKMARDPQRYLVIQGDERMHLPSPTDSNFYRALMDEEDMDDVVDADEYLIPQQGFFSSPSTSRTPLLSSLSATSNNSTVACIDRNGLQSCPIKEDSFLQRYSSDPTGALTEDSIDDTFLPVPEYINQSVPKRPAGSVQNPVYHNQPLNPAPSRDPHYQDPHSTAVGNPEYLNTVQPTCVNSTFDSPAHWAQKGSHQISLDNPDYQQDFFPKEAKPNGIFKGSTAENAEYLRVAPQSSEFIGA
- Assay Procedure: Kinase inhibition assay (33P transfer), EGFR
- Type: biochemical
- Experimental Setup: Table 2, kinase inhibition class; read-out: EGFR-1
pIC50: −log10 of the molar value.

COc1cc(Nc2ncnc(Nc3n[nH]c(Nc4ccc(Cl)cc4)n3)n2)cc(OC)c1OC ... 5.13 to 5.29
COCCOc1ccc(Nc2ncnc(Nc3ccc(C)c(O)c3)n2)cc1OCCOC ... 5.26 to 6.04
COCCOc1ccc(Nc2ncnc(Nc3cc(-c4ccco4)n[nH]3)n2)cc1OCCOC ... 5.29 to 6.07
COc1cc(Nc2ncnc(NC3CC3c3ccccc3)n2)cc(OC)c1OCCN1CCOCC1 (centres unmarked) ... > 6.09

Req: Answer with the recorded pIC50 of `COc1cc(Nc2ncnc(-c3cccnc3NCCN3CCCCC3)n2)cc(OC)c1OC` only.
Resp: < 5.01
